Taken from PubChem BioAssay (NCI).

test method notes: NCI Yeast Anticancer Drug Screen. Data for the rad50 strain (AID 155);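 also: 0% = growth of vehicle-only cultures of the same strain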
assay context: S. cerevisiae rad50 strain growth inhibition; at 50.0 µM
Description: Growth inhibition of yeast strains with defined genetic alterations is measured as a screen for potential anti-cancer activity. Selected strains with alterations in DNA damage repair or cell cycle control were exposed to compounds and growth inhibition was measured relative to vehicle treated controls. The strain used in this assay is rad50
The panel holds about 79,000 compounds, 15% with a hit somewhere; the sample as a whole holds those more often. The source made the active and inactive calls. Rule as the data show it: active = growth inhibition above about 70%; inactive = the rest.
Possible outcomes: true (1) = active, false (0) = inactive

{"molecule": "O=C(O)c1ccc(C(O)(c2ccccc2)c2ccccc2)cc1", "class name": "false (0)"}
{"molecule": "COC(=O)c1ccc(SCCC(=O)CCl)cc1", "class name": "true (1)"}
{"molecule": "Cc1ccc(O)c(Cc2ccc(Cl)cc2)c1", "class name": "true (1)"}
{"molecule": "CN1CCCC1c1cccc(Br)c1 (configuration not stated)", "class name": "false (0)"}
{"molecule": "CC(C)(C)[Si](C)(C)OCC1OC(n2cc(I)c(N)nc2=O)C(O[Si](C)(C)C(C)(C)C)C1O[Si](C)(C)C(C)(C)C (configuration not stated)", "class name": "false (0)"}
{"molecule": "O=C(c1c(F)c(F)c(F)c(F)c1F)n1c(=S)n(C(=O)c2c(F)c(F)c(F)c(F)c2F)c2ccccc21", "class name": "false (0)"}
{"molecule": "O=C1/C(=C\\c2ccc(Cl)cc2Cl)Sc2scc(-c3ccc(O)c(O)c3)[n+]21", "class name": "true (1)"}
{"molecule": "O=C1/C(=C/c2ccccc2)CN(C(=O)CCN2CCCC2)C/C1=C\\c1ccccc1", "class name": "true (1)"}
{"molecule": "CCOc1ccc2c(c1)nc1cc(Cl)ccc1[n+]2C", "class name": "true (1)"}
{"molecule": "O=[N+]([O-])c1cnc(F)c(Br)c1", "class name": "true (1)"}
{"molecule": "O/N=C1/C(=C/c2ccc3c(c2)OCO3)CCCC1C(NO)c1ccc2c(c1)OCO2 (configuration not stated)", "class name": "true (1)"}
{"molecule": "C/C(=N\\NC(=S)Nc1ccc([N+](=O)[O-])cc1)c1nc2ncccc2[nH]1", "class name": "true (1)"}
{"molecule": "CCCCc1ccc(Nc2nc(N)c3[nH]cnc3n2)cc1", "class name": "true (1)"}
{"molecule": "COc1ccc2nc3cc(Cl)ccc3c(NCCCN(Cc3cc(OC)c(OC)c(OC)c3)Cc3cc(OC)c(OC)c(OC)c3)c2c1", "class name": "false (0)"}
{"molecule": "Nc1cc(Br)cc2c1[nH]c1ccc(Br)cc12", "class name": "true (1)"}
{"molecule": "CCC(CC)COC(=O)c1cccnc1", "class name": "true (1)"}
{"molecule": "CCC[CH2][Sn]([CH2]CCC)([O]C(=O)C1CCC(=O)N1)[O]C(=O)C1CCC(=O)N1 (configuration not stated)", "class name": "true (1)"}
{"molecule": "O=C(O)C(Cc1ccc(O)cc1)NC(=O)N(c1ccccc1)c1ccccc1 (configuration not stated)", "class name": "false (0)"}
{"molecule": "S=C(Nc1ccc(Br)c(Cl)c1)SCc1ccc2c(c1)OCO2", "class name": "true (1)"}
{"molecule": "COc1ccc2oc(-c3ccc(OC)c(OC)c3OC)cc(=O)c2c1", "class name": "false (0)"}
{"molecule": "Nc1ccc(-c2ccc(N)cc2S(=O)(=O)O)c(S(=O)(=O)O)c1", "class name": "false (0)"}
{"molecule": "COc1ccc(C2=C(Cl)C(=O)N(c3ccc(O)cc3)C(=O)C2(Cl)Cl)cc1", "class name": "false (0)"}
